Each item that follows carries a reported inhibition of SARS-CoV-2 cytopathic effect.
test system: Vero E6 infected with SARS-CoV-2; assay: inhibition of SARS-CoV-2 cytopathic effect; higher = more antiviral protection, active = above 15; conditions: 1 nM; 48 h
endpoint: inhibition of SARS-CoV-2 cytopathic effect (%)

compound	reportedMeasurement
N#CCC1(n2cc(-c3ncnc4[nH]ccc34)cn2)CN(C2CCN(C(=O)c3ccnc(C(F)(F)F)c3F)CC2)C1 [itacitinib]	1.05
CC(C)[N+](C)(CCC(C(N)=O)(c1ccccc1)c1ccccc1)C(C)C [isopropamide-iodide]	1.15
COc1ccccc1OC(=O)c1ccccc1OC(C)=O [guacetisal]	-0.24
CS(=O)(=O)n1cc2c(n1)CN([C@H]1CO[C@H](c3cc(F)ccc3F)[C@@H](N)C1)C2 [omarigliptin]	-0.75
CCCCC1(COC(=O)CCC(=O)O)C(=O)N(c2ccccc2)N(c2ccccc2)C1=O [suxibuzone]	-0.21
CNC(=O)c1nn(C)c2c1C(C)(C)Cc1cnc(Nc3ccc(N4CCN(C)CC4)cc3)nc1-2	0.32
c1cc(Cc2cnc[nH]2)ccn1 [immethridine]	0.32
CC(C)n1c(/C=C/[C@@H](O)C[C@@H](O)CC(=O)O)c(-c2ccc(F)cc2)c2ccccc21 [fluvastatin]	-0.24
c1cc(-c2cnn3cc(-c4ccc(N5CCNCC5)cc4)cnc23)c2cccnc2c1	-0.58
N=C(N)NCCC[C@@H](NC(=O)[C@@H]1CCCN1C(=O)[C@@H]1CSSCCC(=O)N[C@@H](Cc2ccc(O)cc2)C(=O)N[C@@H](Cc2ccccc2)C(=O)N[C@@H](CCC(N)=O)C(=O)N[C@@H](CC(N)=O)C(=O)N1)C(=O)NCC(N)=O [desmopressin-acetate]	-0.33
CCCCCCCCCCCCCCCC(=O)O[C@@H]1[C@@H](O)[C@@H](O)[C@@H]([C@H](NC(=O)[C@@H]2C[C@@H](CCC)CN2C)[C@H](C)Cl)O[C@@H]1SC [clindamycin-palmitate]	-0.87
Cc1cc(Nc2ncnc3ccc(NC4=NC(C)(C)CO4)cc23)ccc1Oc1ccn2ncnc2c1 [tucatinib]	-2.37
O=c1c(-n2ccnn2)c[nH]n1-c1cc(N2CCOCC2)ncn1 [molidustat]	1.15
CN1CCCN=C1/C=C/c1cccs1 [pyrantel-pamoate]	1.74
Cc1c(C(=O)NN2CCOCC2)nn(-c2ccc(Cl)cc2Cl)c1-c1ccc(I)cc1	0.53
NCCc1c[nH]cn1 [histamine]	-0.66

###

tested on: Vero E6 infected with SARS-CoV-2; test: SARS-CoV-2 infection rate relative to infected DMSO; higher = more infection, active = 60 or less; conditions: 24 h
Reported SARS-CoV-2 infection rate by item:

molecule	SARS-CoV-2 infection rate (%)
CO[C@H]1C[C@@H]2CC[C@@H](C)[C@@](O)(O2)C(=O)C(=O)N2CCCC[C@H]2C(=O)O[C@H]([C@H](C)C[C@@H]2CC[C@@H](O)[C@H](OC)C2)CC(=O)[C@H](C)/C=C(\C)[C@@H](O)[C@@H](OC)C(=O)[C@H](C)C[C@H](C)/C=C/C=C/C=C/1C [sirolimus] (10 µM)	104
Cc1ccc(F)cc1C(=O)Nc1ccc(C(=O)N2Cc3cccn3Cc3ccccc32)c(Cl)c1 [lixivaptan] (10 µM)	111
Cc1ccc2c(=O)c3cccc(CC(=O)O)c3oc2c1C (10 µM)	114
CN1C(=O)C(F)=C[C@]2(C)[C@H]3CC[C@]4(C)[C@@H](C(=O)NCc5nc6cccnc6[nH]5)CC[C@H]4[C@@H]3CC[C@@H]12 (10 µM)	100
CN[C@H]1CC[C@@H](c2ccc(Cl)c(Cl)c2)c2ccccc21 (0.833333 µM)	89.5
CN(Cc1cc(Br)cc(Br)c1N)C1CCCCC1 [bromhexine] (10 µM)	102
C/C(=C\c1csc(C)n1)[C@@H]1C[C@@H]2O[C@]2(C)CCC[C@H](C)[C@H](O)[C@@H](C)C(=O)C(C)(C)[C@@H](O)CC(=O)O1 [epothilone-B] (0.833333 µM)	115
CCc1cc(-c2[nH]nc(C)c2-c2ccc3c(c2)OCCO3)c(O)cc1O (0.833333 µM)	114
Nc1ccc(-c2ccc3ncc4ccc(=O)n(-c5cccc(C(F)(F)F)c5)c4c3c2)cn1 [torin-2] (10 µM)	86.5
CCN1CCCC1CNC(=O)c1cc(S(=O)(=O)CC)c(N)cc1OC (centres undefined) [amisulpride] (10 µM)	105
CCCc1nc2c(C)cc(-c3nc4ccccc4n3C)cc2n1Cc1ccc(-c2ccccc2C(=O)O)cc1 [telmisartan] (10 µM)	100
CC(C)c1nc(CN(C)C(=O)N[C@H](C(=O)N[C@@H](Cc2ccccc2)C[C@H](O)[C@H](Cc2ccccc2)NC(=O)OCc2cncs2)C(C)C)cs1 [ritonavir] (10 µM)	104
CN1[C@@H]2CC[C@H]1C[C@@H](OC(=O)c1cc(Cl)cc(Cl)c1)C2 [bemesetron] (10 µM)	89.5
CCOC(=O)c1c(C)n(C)c2ccc(O)cc12 [mecarbinate] (10 µM)	112

###

# SARS-CoV-2 infection rate per record follows
tested on: Vero E6 infected with SARS-CoV-2; experiment: SARS-CoV-2 infection rate relative to infected DMSO; higher = more infection, active = 60 or less; conditions: 24 h
endpoint: SARS-CoV-2 infection rate (%)

molecule	endpoint	u	reportedMeasurement
Cc1ncc(-c2csc(N=C(N)N)n2)[nH]1 [zaltidine] (10 µM)	SARS-CoV-2 infection rate	%	106
C[C@]12CC[C@H](O)C[C@H]1CC[C@@H]1[C@@H]2C[C@@H](O)[C@]2(C)[C@@H](C3=CC(=O)OC3)CC[C@]12O [digoxigenin] (0.833333 µM)	SARS-CoV-2 infection rate	%	99.5
O=C1CCc2ccc(OCCCCN3CCN(c4cccc(Cl)c4Cl)CC3)cc2N1 [aripiprazole] (10 µM)	SARS-CoV-2 infection rate	%	103
C/C(=N\NC(=N)N)c1cc(NC(=O)CCCCCCCCC(=O)Nc2cc(/C(C)=N/NC(=N)N)cc(/C(C)=N/NC(=N)N)c2)cc(/C(C)=N/NC(=N)N)c1 [semapimod] (0.833333 µM)	SARS-CoV-2 infection rate	%	115
COCCCOc1cc(C[C@@H](C[C@H](N)[C@@H](O)C[C@H](C(=O)NCC(C)(C)C(N)=O)C(C)C)C(C)C)ccc1OC [aliskiren-hemifumarate] (10 µM)	SARS-CoV-2 infection rate	%	110
CC1(C)CC(=O)c2c(C(F)(F)F)nn(-c3ccc(C(N)=O)c(N[C@H]4CC[C@H](O)CC4)c3)c2C1 (10 µM)	SARS-CoV-2 infection rate	%	102
C[C@H](Nc1cc2c(-c3ccc4c(c3)OCO4)noc2cn1)c1ccccc1 (10 µM)	SARS-CoV-2 infection rate	%	84.5
Cn1nnnc1SCC1=C(C(=O)O)N2C(=O)[C@@H](NC(=O)[C@H](OC=O)c3ccccc3)[C@H]2SC1 [cefamandole-nafate] (10 µM)	SARS-CoV-2 infection rate	%	102
Nc1nc(=O)[nH]cc1F [flucytosine] (10 µM)	SARS-CoV-2 infection rate	%	107
O=C(O)/C=C\c1c[nH]cn1 [cis-Urocanic acid] (10 µM)	SARS-CoV-2 infection rate	%	104
Cc1c(N)cccc1Cn1ccc(OCCc2cccs2)cc1=O (10 µM)	SARS-CoV-2 infection rate	%	102
COc1cc2c(cc1OC)-c1c/c(=N\c3c(C)cc(C)cc3C)n(C)c(=O)n1CC2 [trequinsin] (10 µM)	SARS-CoV-2 infection rate	%	87.5
C=CC(=O)Nc1cc(Nc2nccc(-c3c[nH]c4ccccc34)n2)c(OC)cc1N(C)CCN(C)C (0.833333 µM)	SARS-CoV-2 infection rate	%	112
CCNC(=O)NS(=O)(=O)c1sc(CC(C)C)cc1-c1ccc(Cn2c(-c3ccccc3)nc(OC)c2C=O)cc1 (10 µM)	SARS-CoV-2 infection rate	%	97
CCCCN1CCCCC1C(=O)Nc1c(C)cccc1C (stereo not given) [bupivacaine] (10 µM)	SARS-CoV-2 infection rate	%	110

###

test system: Vero E6 infected with SARS-CoV-2; experiment: SARS-CoV-2 infection rate relative to infected DMSO; higher = more infection, active = 60 or less; details: 24 h
Measured SARS-CoV-2 infection rate accompanies every entry in the list below.

compound	SARS-CoV-2 infection rate / %
O=C(Nc1ccc([N+](=O)[O-])cc1O)Nc1ccccc1Br (0.833333 µM)	103
N#CC(c1ccccc1)(c1ccccc1)c1ccccc1Cl (10 µM)	89
COc1cc2ncnc(Nc3cccc(Br)c3)c2cc1OC (10 µM)	104
O=C(NCCN1CCOCC1)c1ccc(Cl)cc1 [moclobemide] (10 µM)	103
CCOc1nc2cccc(C(=O)OCc3oc(=O)oc3C)c2n1Cc1ccc(-c2ccccc2-c2noc(=O)[nH]2)cc1 [azilsartan-medoxomil] (10 µM)	116
CC(C)c1ccccc1S(=O)(=O)c1cc(N)c2ncccc2c1[N+](=O)[O-] (10 µM)	95.5
O=C(Cn1c(=O)sc2ccc(Cl)cc21)N1CCN(CCO)CC1 [tiaramide] (10 µM)	104
NC[C@H]1O[C@H](O[C@H]2[C@H](O)[C@@H](O[C@H]3O[C@H](CO)[C@@H](O)[C@H](N)[C@H]3O)[C@H](N)C[C@@H]2N)[C@H](N)[C@@H](O)[C@@H]1O [bekanamycin] (10 µM)	103
